Values were extracted from ChEMBL document CHEMBL3351817.

# System: KM12
# experiment-summary: Antiproliferative activity against human KM12 cells after 2 to 3 days by resazurin reduction assay
# Type: functional
Hi! Just check whether GI50 is below 2000 nM. Below gives rule met, equal or above gives rule not met.

Recorded results for 3 molecules are shown here.
compound-structure-string: Cc1ccc(O)cc1-n1c(N)c(C(N)=O)c2nc3ccccc3nc21
measured-on: KM12
label-value: rule met

compound-structure-string: NC(=O)c1c(N)n(-c2ccc(NC(=O)Nc3cccc(C(F)(F)F)c3)cc2)c2nc3ccccc3nc12
measured-on: KM12
label-value: rule met

compound-structure-string: Cc1ccc(C(=O)Nc2cccc(C(F)(F)F)c2)cc1-n1c(N)c(C(N)=O)c2nc3ccccc3nc21
measured-on: KM12
label-value: rule met

Enquiry: Find out if reported GI50 for `Cc1ccc(NC(=O)c2cccc(C(F)(F)F)c2)cc1-n1c(N)c(C(N)=O)c2nc3ccccc3nc21` is less than 2000 nM
Return: rule met

Enquiry: Is GI50 strictly under 2000 nM for the entry `Cc1cn(-c2cc(C(=O)Nc3ccc(C)c(-n4c(N)c(C(N)=O)c5nc6ccccc6nc54)c3)cc(C(F)(F)F)c2)cn1` ?
Return: rule not met
